- target.or.system: human HER2 exon 20 insertion mutant (A775_G776insYVMA) protein (Homo sapiens, UniProt P04626, INS775YVMA)
- Construct: purchased SignalChem
- Sequence (P04626 with tags, fused parts or gaps INS775YVMA limits assumed): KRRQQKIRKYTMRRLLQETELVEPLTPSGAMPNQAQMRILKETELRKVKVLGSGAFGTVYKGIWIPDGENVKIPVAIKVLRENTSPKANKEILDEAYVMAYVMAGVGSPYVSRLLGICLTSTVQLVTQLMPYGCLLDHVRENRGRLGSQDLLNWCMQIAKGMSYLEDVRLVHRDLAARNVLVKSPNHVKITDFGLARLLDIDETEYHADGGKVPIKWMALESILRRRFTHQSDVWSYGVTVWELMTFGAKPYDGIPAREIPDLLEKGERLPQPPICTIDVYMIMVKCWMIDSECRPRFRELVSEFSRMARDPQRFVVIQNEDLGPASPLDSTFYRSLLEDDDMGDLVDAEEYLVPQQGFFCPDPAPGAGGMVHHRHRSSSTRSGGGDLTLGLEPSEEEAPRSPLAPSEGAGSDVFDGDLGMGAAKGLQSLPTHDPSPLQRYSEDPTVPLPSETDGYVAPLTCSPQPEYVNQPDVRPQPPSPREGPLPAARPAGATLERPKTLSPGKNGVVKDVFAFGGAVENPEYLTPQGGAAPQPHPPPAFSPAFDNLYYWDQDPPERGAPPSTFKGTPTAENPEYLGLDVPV
- method.notes: Inhibitory action (in vitro) against HER2 exon 20 insertion mutant phosphorylation activity
- Format: biochemical
- settings: pre-incubated 30 minutes, ATP 200 μM, 25°C, 220 minutes; read-out: HER2ex20insYVMA inhibitory activity IC50 value
pIC50: −log10 of the molar value.
Documented pIC50 across a set of compounds
readout.name: pIC50

1. C=CC(=O)N1C[C@H](n2nc(C(=O)Nc3ccc(CC(=O)N(C)C)c(C)c3C)c3c(N)ncnc32)C[C@@H]1C [Comp. Ex. 2, reference compound] : 8.36
2. C=CC(=O)N1C[C@H](n2c(C#CC)c(C(=O)N(C)[C@H](C)c3ccccc3)c3c(N)ncnc32)C[C@@H]1C [Comp. Ex. 5, reference compound] : 7.85
3. C=CC(=O)N1C[C@H](n2c(C#CC(C)(C)C)c(C(=O)N[C@H](C)c3ccccc3)c3c(N)ncnc32)C[C@@H]1C : 9.41
4. C=CC(=O)N1C[C@H](n2c(C#CC)c(C(=O)N[C@H](C)c3cc(F)cc(F)c3)c3c(N)ncnc32)C[C@@H]1C : 9.47
5. C=CC(=O)N1C[C@H](n2c(C#CC3CC3)c(C(=O)N[C@H](C)c3ccccc3)c3c(N)ncnc32)C[C@@H]1CC : 9.27
6. C=CC(=O)N1C[C@H](n2c(C#CC)c(C(=O)N[C@H](C)c3ccc(F)cc3F)c3c(N)ncnc32)C[C@@H]1C : 9.41
7. C=CC(=O)N1C[C@H](n2c(C#CC)c(C(=O)NCC3CCCCC3)c3c(N)ncnc32)C[C@@H]1C [Comp. Ex. 3, reference compound] : 6.42
8. C=CC(=O)N1C[C@H](n2c(C#CC)c(C(=O)N[C@H](C)c3ccccc3)c3c(N)ncnc32)C[C@@H]1CC : 9.36
9. C=CC(=O)N1C[C@H](n2c(C#CC(C)C)c(C(=O)NC(C)(C)c3ccccc3F)c3c(N)ncnc32)C[C@@H]1C : 9.38
10. C=CC(=O)N1C[C@H](n2c(C#CC(C)(C)OC)c(C(=O)N[C@H](C)c3ccccc3)c3c(N)ncnc32)C[C@@H]1C : 9.36
11. C=CC(=O)N1C[C@H](n2c(C#CC)c(C(=O)NC(C)(C)c3ccccc3F)c3c(N)ncnc32)C[C@@H]1C : 9.42
12. C=CC(=O)N1C[C@H](n2c(C#CC3CC3)c(C(=O)N[C@H](C)c3ccccc3)c3c(N)ncnc32)C[C@@H]1COCC : 8.96
13. C=CC(=O)N1C[C@H](n2c(C#CC)c(C(=O)N[C@H](CC)c3ccccc3)c3c(N)ncnc32)C[C@@H]1C : 9.43
14. C=CC(=O)N1C[C@H](n2c(C#CC3CC3)c(C(=O)NC(C)(C)c3ccccc3)c3c(N)ncnc32)C[C@@H]1C : 9.49
15. C=CC(=O)N1C[C@H](n2c(C#CC)c(C(=O)NCc3ccccc3C)c3c(N)ncnc32)C[C@@H]1C [Comp. Ex. 4, reference compound] : 7.96

---

- target.or.system: EGFR [D770_N771insNPG] (Homo sapiens, UniProt P00533, INS770NPG)
- Sequence (P00533 with tags, fused parts or gaps INS770NPG limits assumed): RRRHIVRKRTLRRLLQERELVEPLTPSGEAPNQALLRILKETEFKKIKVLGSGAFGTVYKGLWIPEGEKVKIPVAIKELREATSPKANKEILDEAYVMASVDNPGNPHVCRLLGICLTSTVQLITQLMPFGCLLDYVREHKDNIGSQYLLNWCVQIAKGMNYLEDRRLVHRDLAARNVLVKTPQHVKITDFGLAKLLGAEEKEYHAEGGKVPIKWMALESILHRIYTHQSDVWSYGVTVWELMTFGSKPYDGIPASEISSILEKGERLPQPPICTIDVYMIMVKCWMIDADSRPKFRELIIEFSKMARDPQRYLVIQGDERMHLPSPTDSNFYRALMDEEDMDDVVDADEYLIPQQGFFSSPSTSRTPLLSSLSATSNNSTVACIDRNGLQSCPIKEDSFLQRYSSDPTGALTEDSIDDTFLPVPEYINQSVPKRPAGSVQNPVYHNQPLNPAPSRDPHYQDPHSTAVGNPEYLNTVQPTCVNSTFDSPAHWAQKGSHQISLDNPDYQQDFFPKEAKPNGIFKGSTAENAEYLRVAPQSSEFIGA
- method.notes: Phosphorylation activity inhibitory effect (in vitro) on mutant EGFR D770_N771insNPG
- Description: Test Example 6 Measurement of Phosphorylation Activity Inhibitory Effect (In Vitro) on Wild-Type and Mutant EGFR […] Specifically, first, the pyrimidine compound of the present invention was diluted stepwise with dimethyl sulfoxide (DMSO). […] Finally, using LabChip™ EZ Reader II (PerkinElmer), an unphosphorylated substrate peptide (S) and a phosphorylated peptide (P) were separated and detected according to microchannel capillary electrophoresis. […]
readout.name: IC50 (nM)

1) C=CC(=O)N1C[C@H](n2c(C#CC3CC3)c(C(=O)N[C@H](C)c3ccccc3)c3c(N)ncnc32)C[C@@H]1C : 0.55
